# ASSAYED SYSTEM: T1, O2-bA
# T1 chain: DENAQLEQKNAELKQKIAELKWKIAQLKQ
# METHOD SUMMARY: two-hybrid library CCNG1;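 note: natural log of median RNA to DNA barcode read ratio; higher means stronger binding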
QUANTITY: interaction score

BINDER | interaction score
DEIAQLEQENAELEQKIAELKWENAQLEQ [O15-bA] | -0.458

1 = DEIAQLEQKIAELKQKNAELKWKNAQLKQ [O12-bA]
2 = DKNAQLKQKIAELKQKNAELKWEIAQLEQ [O13-bA]
Ask | Which entry shows the lesser value of interaction score here, 1 or 2 ? Bench note: the answer is the label of the chosen record.
Reply | 2
